- Tested on: PC-12
- Protocol: Neuroprotective activity against H2O2-induced cytotoxicity in rat PC12 cells assessed as cell viability at 10 uM after 24 hrs by MTT assay relative to control
- Type: functional
- Run parameters: PC-12, 24 h, read-out: Activity
Recorded viability at 10 µM values for a group of compounds are listed next.

{"columns": ["Chemical structure", "viability at 10 µM"],
 "data": [
  ["Cc1ccc(CN2CCN(C(=O)O[C@H]3CC[C@@]4(C)[C@H](CC[C@@H]5[C@@H]4CC[C@]4(C)[C@@H]6[C@H](C[C@@H]54)O[C@]4(CC[C@H](C)CO4)[C@H]6C)C3)CC2)cc1", "19.2%"],
  ["C[C@H]1CC[C@@]2(OC1)O[C@H]1C[C@H]3[C@@H]4CC[C@@H]5C[C@@H](OC(=O)N6CCN(C(=O)c7ccc(Cl)cc7)CC6)CC[C@]5(C)[C@H]4CC[C@]3(C)[C@H]1[C@@H]2C", "20.2%"],
  ["C[C@H]1CC[C@@]2(OC1)O[C@H]1C[C@H]3[C@@H]4CC[C@@H]5C[C@@H](OC(=O)N6CCN(Cc7ccc(N(C)C)cc7)CC6)CC[C@]5(C)[C@H]4CC[C@]3(C)[C@H]1[C@@H]2C", "22%"],
  ["C[C@H]1CC[C@@]2(OC1)O[C@H]1C[C@H]3[C@@H]4CC[C@@H]5C[C@@H](OC(=O)N6CCN(S(=O)(=O)c7ccccc7)CC6)CC[C@]5(C)[C@H]4CC[C@]3(C)[C@H]1[C@@H]2C", "20.8%"],
  ["CCS(=O)(=O)N1CCN(C(=O)O[C@H]2CC[C@@]3(C)[C@H](CC[C@@H]4[C@@H]3CC[C@]3(C)[C@@H]5[C@H](C[C@@H]43)O[C@]3(CC[C@H](C)CO3)[C@H]5C)C2)CC1", "6.8%"],
  ["Cc1ccc(S(=O)(=O)N2CCN(C(=O)O[C@H]3CC[C@@]4(C)[C@H](CC[C@@H]5[C@@H]4CC[C@]4(C)[C@@H]6[C@H](C[C@@H]54)O[C@]4(CC[C@H](C)CO4)[C@H]6C)C3)CC2)cc1", "29.5%"],
  ["C[C@H]1CC[C@@]2(OC1)O[C@H]1C[C@H]3[C@@H]4CC[C@@H]5C[C@@H](OC(=O)N6CCN(Cc7ccccc7)CC6)CC[C@]5(C)[C@H]4CC[C@]3(C)[C@H]1[C@@H]2C", "18.7%"],
  ["C[C@H]1CC[C@@]2(OC1)O[C@H]1C[C@H]3[C@@H]4CC[C@@H]5C[C@@H](OC(=O)N6CCN(Cc7ccc(C#N)cc7)CC6)CC[C@]5(C)[C@H]4CC[C@]3(C)[C@H]1[C@@H]2C", "26.4%"],
  ["C[C@H]1CC[C@@]2(OC1)O[C@H]1C[C@H]3[C@@H]4CC[C@@H]5C[C@@H](OC(=O)N6CCN(Cc7ccccc7O)CC6)CC[C@]5(C)[C@H]4CC[C@]3(C)[C@H]1[C@@H]2C", "36.6%"],
  ["COc1ccc(C(=O)N2CCN(C(=O)O[C@H]3CC[C@@]4(C)[C@H](CC[C@@H]5[C@@H]4CC[C@]4(C)[C@@H]6[C@H](C[C@@H]54)O[C@]4(CC[C@H](C)CO4)[C@H]6C)C3)CC2)cc1", "17.7%"],
  ["COc1ccc(CN2CCN(C(=O)O[C@H]3CC[C@@]4(C)[C@H](CC[C@@H]5[C@@H]4CC[C@]4(C)[C@@H]6[C@H](C[C@@H]54)O[C@]4(CC[C@H](C)CO4)[C@H]6C)C3)CC2)cc1", "33.1%"],
  ["C[C@H]1CC[C@@]2(OC1)O[C@H]1C[C@H]3[C@@H]4CC[C@@H]5C[C@@H](OC(=O)N6CCN(Cc7ccc(F)cc7)CC6)CC[C@]5(C)[C@H]4CC[C@]3(C)[C@H]1[C@@H]2C", "7.2%"],
  ["C[C@H]1CC[C@@]2(OC1)O[C@H]1C[C@H]3[C@@H]4CC[C@@H]5C[C@@H](OC(=O)N6CCN(C(=O)c7ccccc7)CC6)CC[C@]5(C)[C@H]4CC[C@]3(C)[C@H]1[C@@H]2C", "17.6%"],
  ["C[C@H]1CC[C@@]2(OC1)O[C@H]1C[C@H]3[C@@H]4CC[C@@H]5C[C@@H](OC(=O)N6CCN(Cc7ccc(O)cc7)CC6)CC[C@]5(C)[C@H]4CC[C@]3(C)[C@H]1[C@@H]2C", "5.8%"],
  ["C[C@H]1CC[C@@]2(OC1)O[C@H]1C[C@H]3[C@@H]4CC[C@@H]5C[C@@H](OC(=O)N6CCNCC6)CC[C@]5(C)[C@H]4CC[C@]3(C)[C@H]1[C@@H]2C", "3.4%"],
  ["C[C@H]1CC[C@@]2(OC1)O[C@H]1C[C@H]3[C@@H]4CC[C@@H]5C[C@@H](O)CC[C@]5(C)[C@H]4CC[C@]3(C)[C@H]1[C@@H]2C", "3.3%"],
  ["CCCN1CCN(C(=O)O[C@H]2CC[C@@]3(C)[C@H](CC[C@@H]4[C@@H]3CC[C@]3(C)[C@@H]5[C@H](C[C@@H]43)O[C@]3(CC[C@H](C)CO3)[C@H]5C)C2)CC1", "18.9%"],
  ["C[C@H]1CC[C@@]2(OC1)O[C@H]1C[C@H]3[C@@H]4CC[C@@H]5C[C@@H](OC(=O)N6CCN(S(=O)(=O)c7ccc(F)cc7)CC6)CC[C@]5(C)[C@H]4CC[C@]3(C)[C@H]1[C@@H]2C", "8.5%"],
  ["COc1cc(CN2CCN(C(=O)O[C@H]3CC[C@@]4(C)[C@H](CC[C@@H]5[C@@H]4CC[C@]4(C)[C@@H]6[C@H](C[C@@H]54)O[C@]4(CC[C@H](C)CO4)[C@H]6C)C3)CC2)ccc1O", "43.9%"]
]}

Attribution: ChEMBL document CHEMBL4270545
